# Test system: CEM cells HIV-1 protection, formazan growth assay
# procedure text: NCI AIDS Antiviral Assay
Provide the reported EC50 of each item.

Record summary for CCC(C)SSc1ccccc1C(=O)Nc1ccc(Cl)cc1 (stereo unspecified) : reported EC50 = > 200 µM

Record summary for Nc1ncnc2c1ccn2CC=C(CO)CO : reported EC50 = > 200 µM

Record summary for CCOC(=O)c1ccn2c(c1)c(C#N)c1nc3ccccc3nc12 : reported EC50 = > 16.6 µM

Record summary for O=C(Cn1ccnc1[N+](=O)[O-])c1ccc(F)cc1 : reported EC50 = > 724 µM

Record summary for O=C(O)C1CCC(c2ccc(Cl)cc2Cl)=N1 (stereo unspecified) : reported EC50 = > 200 µM

Record summary for CCN(CC)CC(=O)Nc1c(C)cc(C(=O)NN)cc1C : reported EC50 = > 200 µM

Numbers sourced from PubChem BioAssay AID179.
